Measured sfGFP reporter fluorescence accompanies every entry in the list below.
B1: library; numbered along this chain (parent)
chain: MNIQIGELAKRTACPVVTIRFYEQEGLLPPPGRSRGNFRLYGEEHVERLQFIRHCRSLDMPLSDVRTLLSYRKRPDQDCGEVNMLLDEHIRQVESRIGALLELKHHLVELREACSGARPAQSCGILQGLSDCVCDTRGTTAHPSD

Variants of: B1
Assay: sfGFP reporter fluorescence (15 h) (µM FITC); higher = stronger transcriptional activation
Settings: library round: Round 0; ligand: 30 µM Zn
endpoint: sfGFP reporter fluorescence

E94I	0.714
L68Q	0.0629
G6R	0.116
G6L	0.0682
Y41I	0.0623
Y22C	0.0592
P30M	0.859
Q121A	1.16
I3N	0.114
E112Q	1.27
G128W	1.39
